assay: chemical genetic growth profiling, strain panel (AID 1159580);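 further: tested at 20 µM; growth read once vehicle control cultures reached saturation at 30 °C; lower values mean less growth of the strain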; conditions: S. cerevisiae deletion strains, growth OD, locus YHR079C, strain IRE1
Hit rate of the full screen: of about 5,500 compounds, about 2,000 (36%) were called active. Roughly 18% stayed inconclusive and do not appear here. No stated cut-off is given here; in the data, active means normalized growth mostly below about 0.91 (no sharp cut-off); inconclusive means no clear call, values can overlap the other calls; inactive means mostly above about 0.92. The list shows a part of the results.
Labels: active, inactive

compound: COC(=O)[C@@H]1C[C@H](OC(C)=O)C(=O)[C@H]2[C@@]1(C)CC[C@H]1C(=O)O[C@H](c3ccoc3)C[C@]21C
qualitative-label: inactive
//
compound: NC(N)=NCCCCN=C(N)N
qualitative-label: inactive
//
compound: COc1ccc(CCC(=O)c2c(O)cc(O[C@@H]3O[C@H](CO)C(O)[C@H](O)C3O[C@@H]3O[C@@H](C)[C@H](O)[C@@H](O)[C@H]3O)cc2O)cc1O (some centres undefined)
qualitative-label: inactive
//
compound: C[C@]12C=CC(=O)C=C1CCC1C2[C@@H](O)C[C@@]2(C)C1CC[C@]2(O)C(=O)CO (some centres undefined)
qualitative-label: inactive
//
compound: Cc1noc(C)c1S(=O)(=O)Nc1csc(C(F)(F)F)c1-c1ccccc1
qualitative-label: inactive
//
compound: COc1ccc2nc(S(=O)Cc3ncc(C)c(OC)c3C)[nH]c2c1 (centres undefined)
qualitative-label: inactive
//
compound: N[C@@H](C(=O)O)[C@@H](O)[C@H](O)[C@H](O)CO
qualitative-label: inactive
//
compound: CC(=O)O[C@H]1CC[C@@]2(C)C(C[C@@H](OC(C)=O)[C@]3(C)C2CC[C@@]2(C)[C@H](c4ccoc4)OC(=O)[C@H]4O[C@]423)C1(C)C (some centres undefined)
qualitative-label: inactive
//
compound: O=C(O)CCCCCCCC(=O)O
qualitative-label: inactive
//
compound: CC(O)(P(=O)(O)O)P(=O)(O)O
qualitative-label: inactive
//
compound: NC(C(=O)O)C(O)C(=O)O (centres undefined)
qualitative-label: inactive
//
compound: CC(=O)OCC(=O)[C@@]1(O)CCC2C3CCC4=CC(=O)C=CC4(C)C3[C@@H](O)C[C@@]21C (some centres undefined)
qualitative-label: inactive
//
compound: Clc1ccccc1-c1csc(-c2cccnc2)n1
qualitative-label: inactive
//
compound: C[C@]12CCC3c4ccc(OC(=O)c5ccccc5)cc4CCC3C1CCC2=O (some centres undefined)
qualitative-label: inactive
//
compound: CC1(C)C(=O)[C@@H]2O[C@@H]2[C@@]2(C)C1C[C@@H](O)[C@]1(C)C2CC[C@@]2(C)[C@H](c3ccoc3)OC(=O)C3OC321 (some centres undefined)
qualitative-label: inactive
//
compound: COc1ccc(-c2csc(-c3cccnc3)n2)cc1
qualitative-label: inactive
//
compound: NCCCC(=O)O
qualitative-label: inactive
//
compound: NC(N)=NCCN1CCCCCCC1
qualitative-label: inactive
//
compound: CC(=O)O[C@@H]1CC2C(C)(C)[C@@H](O)CC[C@]2(C)C2CC[C@@]3(C)[C@H](c4ccoc4)OC(=O)[C@H]4O[C@]43[C@@]21C (some centres undefined)
qualitative-label: inactive
//
compound: O=C(O)C(O)C(O)C(O)C(O)C(=O)O (centres undefined)
qualitative-label: inactive
//
compound: O=C(O)[C@@H](S)[C@@H](S)C(=O)O
qualitative-label: active
//
compound: CC(=O)O[C@@H]1CC2C(C)(C)[C@H](O)C=C[C@]2(C)C2CC[C@@]3(C)[C@H](c4ccoc4)OC(=O)C4OC43[C@@]21C (some centres undefined)
qualitative-label: inactive
//
compound: CC1CCC(C(C)C)C(N(Cc2ccccc2)C(=O)c2ccccc2)C1 (centres undefined)
qualitative-label: inactive
//
compound: NCCCCCC(=O)O
qualitative-label: inactive
//
compound: Clc1ccc(C(c2ccccc2Cl)C(Cl)Cl)cc1 (centres undefined)
qualitative-label: inactive
//
compound: CNC(=O)Sc1c(-c2ccc(Cl)cc2)nn(C(=O)NC)c1SC
qualitative-label: active
//
compound: COc1ccnc(CS(=O)c2nc3ccc(OC(F)F)cc3[nH]2)c1OC (centres undefined)
qualitative-label: inactive
//
compound: O=c1cccc2n1CC1CC2CN2CCCC[C@@H]12 (some centres undefined)
qualitative-label: inactive
//
compound: NCC[C@@H](O)C(=O)N[C@@H]1C[C@H](N)[C@@H](O[C@H]2O[C@H](CN)[C@@H](O)[C@H](O)[C@H]2O)[C@H](O)[C@H]1O[C@H]1O[C@H](CO)[C@@H](O)[C@H](N)C1O (some centres undefined)
qualitative-label: inactive
